assay_system: D-xylonate dehydratase (XAD) (Caulobacter vibrioides)
Construct: gene xylD; full-length gene in pET vector, N-terminal His tag, E. coli expression
Sequence (A0A0H3C6H6 1-591): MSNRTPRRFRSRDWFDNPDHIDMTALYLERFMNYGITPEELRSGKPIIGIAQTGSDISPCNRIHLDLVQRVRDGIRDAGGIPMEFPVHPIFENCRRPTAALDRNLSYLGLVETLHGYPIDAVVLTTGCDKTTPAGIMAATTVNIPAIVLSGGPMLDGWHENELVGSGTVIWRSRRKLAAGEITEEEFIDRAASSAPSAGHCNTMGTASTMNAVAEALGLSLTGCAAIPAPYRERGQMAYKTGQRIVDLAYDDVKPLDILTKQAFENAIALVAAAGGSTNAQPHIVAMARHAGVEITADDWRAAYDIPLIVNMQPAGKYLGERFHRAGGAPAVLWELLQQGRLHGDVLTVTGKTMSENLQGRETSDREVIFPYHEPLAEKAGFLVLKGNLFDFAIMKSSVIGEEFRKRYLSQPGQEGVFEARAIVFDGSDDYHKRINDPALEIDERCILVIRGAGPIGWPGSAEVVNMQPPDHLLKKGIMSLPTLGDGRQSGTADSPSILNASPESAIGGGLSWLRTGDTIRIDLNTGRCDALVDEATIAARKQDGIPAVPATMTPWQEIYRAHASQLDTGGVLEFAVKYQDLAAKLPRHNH
assay_details: biochemical
Design: product inhibition constants from fits of rate equations to initial rate kinetics of purified enzyme
protocol_conditions: read-out: K estimate (mM), inhibition
measurement_label: Ki (mM)
Reply numerically in mM, unit not repeated.

Quick note, Ki for O=C(O)C(=O)C[C@H](O)CO [2-keto-3-deoxy-D-xylonate] landed at 0.86

###

assay_system: α-Ketoglutarate semialdehyde dehydrogenase (KGSADH) (Caulobacter vibrioides, UniProt A0A0H3C801)
Construct: gene xylA; full-length gene in pET vector, N-terminal His tag, E. coli expression, Ni-TED and size exclusion
Sequence (A0A0H3C801 1-478): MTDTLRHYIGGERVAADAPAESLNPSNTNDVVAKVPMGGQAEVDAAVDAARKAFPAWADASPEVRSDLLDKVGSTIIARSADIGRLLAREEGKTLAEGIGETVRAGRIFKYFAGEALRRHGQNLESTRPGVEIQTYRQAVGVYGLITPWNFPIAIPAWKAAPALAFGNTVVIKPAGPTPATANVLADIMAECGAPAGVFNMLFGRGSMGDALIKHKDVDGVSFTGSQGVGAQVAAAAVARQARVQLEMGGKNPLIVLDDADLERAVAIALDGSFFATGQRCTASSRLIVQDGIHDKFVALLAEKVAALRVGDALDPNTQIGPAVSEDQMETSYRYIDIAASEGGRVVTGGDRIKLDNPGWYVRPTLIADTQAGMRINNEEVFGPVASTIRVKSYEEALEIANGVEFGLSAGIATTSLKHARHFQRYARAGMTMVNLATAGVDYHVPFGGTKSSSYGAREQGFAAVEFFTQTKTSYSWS
assay_details: biochemical
Set-up: product inhibition constants from fits of rate equations to initial rate kinetics of purified enzyme
protocol_conditions: read-out: K estimate (mM), inhibition
measurement_label: Ki

INSERT INTO measurements (compound, measurement_label, reading) VALUES
  ('O=C(O)C(=O)C[C@H](O)CO [2-keto-3-deoxy-D-xylonate]', 'Ki', '0.021 mM');

Quick note, Ki for O=C(O)CCC(=O)C(=O)O landed at 0.28 mM

###

assay_system: D-xylose dehydrogenase (XDH) (Caulobacter vibrioides)
Construct: gene xylB; full-length gene in pET vector, N-terminal His tag, E. coli expression, Ni-TED and size exclusion
Sequence (B8H1Z0 whole entry): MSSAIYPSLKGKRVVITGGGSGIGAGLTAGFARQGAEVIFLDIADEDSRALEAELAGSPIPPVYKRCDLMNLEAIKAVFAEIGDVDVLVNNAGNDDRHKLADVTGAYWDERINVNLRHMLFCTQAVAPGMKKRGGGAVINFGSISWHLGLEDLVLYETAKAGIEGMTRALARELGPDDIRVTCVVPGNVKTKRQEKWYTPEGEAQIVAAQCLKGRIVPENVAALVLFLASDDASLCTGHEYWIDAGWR
assay_details: biochemical
Design: product inhibition constants from fits of rate equations to initial rate kinetics of purified enzyme
protocol_conditions: read-out: K estimate (mM), inhibition
measurement_label: Ki

INSERT INTO measurements (compound, measurement_label, reading) VALUES
  ('NC(=O)C1=CN([C@@H]2O[C@H](COP(=O)(O)OP(=O)(O)OC[C@H]3O[C@@H](n4cnc5c(N)ncnc54)[C@H](O)[C@@H]3O)[C@@H](O)[C@H]2O)C=CC1 [NADH]', 'Ki', '0.03 mM');

Turning now to a further compound:
Quick note, Ki for O=C1O[C@H](CO)[C@H](O)[C@H]1O [D-xylono-1,4-lactone] landed at 0.54 mM
